These data points were gathered from PubChem BioAssay (NCATS).

Answer each item with its documented activity change, negative = inhibition.
experiment: AP1 Signaling Pathway (AID 357); conditions: ME-180 (cervical carcinoma) AP-1-bla reporter, EGF-induced, beta-lactamase ratio, 5 h; at 7.69 µM (top of the series) unless noted;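 note: ME-180 reporter cells stimulated with EGF at its EC50 level; % is set by controls: 0 for no effect and ±100 for the full control effect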
Inconclusive results are not listed.
One number for each entry, in %.

>  <compound>
O=c1[nH]c(SCc2c(Cl)c(Cl)c(Cl)c(Cl)c2Cl)nc(=S)[nH]1

>  <unit_annotation>
%

>  <activity change, negative = inhibition>
6.9

$$$$
>  <compound>
O[C@@H](c1cc(-c2ccccc2)nc2c1ccc1ccccc12)[C@@H]1CCCCN1

>  <unit_annotation>
%

>  <activity change, negative = inhibition>
-3.12

$$$$
>  <compound>
Sc1ccc2ccccc2c1CNCc1ccccc1

>  <unit_annotation>
%

>  <activity change, negative = inhibition>
12.3

$$$$
>  <compound>
O=C(O)Cc1[nH]cnc1C(=O)O

>  <unit_annotation>
%

>  <activity change, negative = inhibition>
-11

$$$$
>  <compound>
CC(C)C1=C[C@@]23CC[C@@H]4[C@](C)(CCC[C@@]4(C)C(=O)O)[C@@H]2C[C@@H]1[C@@H](C(=O)O)[C@@H]3C(=O)O

>  <unit_annotation>
%

>  <activity change, negative = inhibition>
1.99

$$$$

Parameters: items (list). Returns: activity change, negative = inhibition for each item.
1. C[C@@H](CSC(=N)N)C(N)=O
2. O=C(O)c1ccncc1.O=C(O)c1ccncc1.[Cl][Pt]([Cl])([Cl])[Cl]
3. C[N+](C)(C)c1ncnc2c1ncn2[C@@H]1C[C@H](O)[C@@H](CO)O1
4. CN(C)c1ccc(C2N([C@H](C#N)c3ccc(N(C)C)cc3)CCCN2[C@@H](C#N)c2ccc(N(C)C)cc2)cc1 (stereo not given in full)

1. -3.05
2. 2.72
3. 2.41
4. 0.74

For each of the compounds below, state activity change, negative = inhibition.
1. O[C@]1(c2ccccc2)c2ccccc2NC2=NCCN21
2. Clc1ccc2c(NCCNC3CCCCC3)ccnc2c1
3. CC1(C)O[C@H]2[C@@H](O1)[C@@H](On1nnc3ccc(Cl)cc31)O[C@@H]2[C@@H]1COC(C)(C)O1
4. CCCn1cnc2c(SCc3ccc(Cl)cc3)nc(N)nc21
5. Cc1nc2cnc(OCc3ccccc3)nc2n(Cc2ccc(F)cc2)c1=O
6. NC1=C2NC=N[C@@H]2N(C/C=C\c2ccccc2)C=N1

1. 12.3
2. 5.59
3. -0.0878
4. -19.8
5. -22.4
6. 1.36

---

experiment: Cell Viability - LYMP2-014 (AID 983); conditions: LYMP2-014 lymphoblastoid cells, viability qHTS; series mostly up to 92.2 µM;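 note: cells exposed to compound for 24 h at 37 °C; nearly all actives have a fitted effect of over 50% in size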
Inconclusive results are not listed. Active and inactive are the calls of the source. Calls come from the whole dose curve; as a rule, active = well fitted cell-killing curve with a large enough effect; inconclusive = small, poorly fitted or top-dose-only effect; inactive = flat fitted curve, though single readings scatter.
Result category, one only: 1 (yes) for active, 0 (no) for inactive

>  <molecule>
c1ccc(CSCc2ccccc2)cc1

>  <assigned_class>
0 (no)

$$$$
>  <molecule>
Nc1ccccc1O

>  <assigned_class>
0 (no)

$$$$
>  <molecule>
OCC(CBr)(CBr)CBr

>  <assigned_class>
0 (no)

$$$$
>  <molecule>
c1c[nH]cn1

>  <assigned_class>
0 (no)

$$$$
>  <molecule>
CN(C)c1ccc(C(=N)c2ccc(N(C)C)cc2)cc1

>  <assigned_class>
1 (yes)

$$$$
>  <molecule>
CCCCC(CC)COC(=O)COc1ccc(Cl)cc1Cl (stereo unspecified)

>  <assigned_class>
0 (no)

$$$$

Which outcome did this test record for the molecule "C=C(C#N)C(=O)OCC" ? 0 (no)

// return assay outcome for "c1ccc2ncccc2c1" 0 (no)

// param item: "O=[N+]([O-])c1ccccc1Nc1ccccc1" ; yields the recorded call 0 (no)

Could you kindly confirm the outcome this assay logged for C=CC(C)(O)CCCC(C)CCCC(C)CCCC(C)C (stereo unspecified) ? 0 (no)

Check the results log: what was the call for CC(=O)OC1CC(C)OC(C)O1 (stereo unspecified) ? 0 (no)

Which outcome was assigned to "Nc1cc([N+](=O)[O-])ccc1O" in this test? 0 (no)

---

I'd be grateful if you could share measured activity change, negative = inhibition for these entries.
Target: Cytochrome P450 1A2 (Homo sapiens)
Test: p450-cyp1a2 (AID 410);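 note: -100% = full effect of reference inhibitor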
Conditions: recombinant CYP1A2, luciferin-ME demethylation, luminescence; series mostly up to 11.4 µM
Experimental: The P450 gene superfamily is involved in metabolism and the clearance of xenobiotics. This assay used human CYP1A2 to measure the demethylation of luciferin 6' methyl ether (Luciferin-ME; Promega-Glo) to luciferin. The luciferin is then measured by luminescence after the addition of a luciferase detection regeant. Luciferin-ME concentration in the assay was equal to its Km for CYP1A2. NCGC Assay Protocol Summary: […]
Inconclusive results are not listed. The source made the active and inactive calls. Calls come from the whole dose curve.

Batch of 3 compounds: report activity change, negative = inhibition for each.
1. Oc1c(CN2CCOCC2)ccc(CN2CCOCC2)c1O
2. C=C1CCO[C@@]2([C@H](O)[C@@](C)(O)CO)NC(=O)[C@]1(O)NC2=O
3. Cc1cc(Cc2cc(C)cc(C(C)(C)C)c2O)c(O)c(Cc2cc(C)cc(C(C)(C)C)c2O)c1

["-11.9% [at 2.29 µM] (inactive)", "-4% [at 2.29 µM] (inactive)", "-15.6% [at 2.29 µM] (inactive)"]

For every item in the list below, what is its measured activity change, negative = inhibition?
1. Cn1c(=O)c2[nH]c(CS(=O)(=O)Cc3nc4c([nH]3)c(=O)n(C)c(=O)n4C)nc2n(C)c1=O
2. O=S1(=O)[C@H]([C@H]2CC3c4ccccc4C2c2ccccc23)[C@@H](N2CCCCC2)[C@@H]1c1ccccc1
3. CC(=O)Nc1ccc(S(=O)(=O)N=S(C)C)cc1
4. O=C(O)COc1c(Cl)cc(Cl)c2cccnc12
5. CS[C@]12C(=O)C[C@]3(C)[C@@H](CC[C@@]3(O)C(=O)CO)[C@@H]1CCC1=CC(=O)CC[C@]12C
6. CC(C)(C[C@@]1(C)NC(=O)NC1=O)OCc1ccccc1

-21.1% [at 2.29 µM] (inactive)
1.6% [at 2.29 µM] (inactive)
-15.9% [at 2.29 µM] (inactive)
-1.3% [at 2.29 µM] (inactive)
-24.3% [at 2.29 µM] (inactive)
-12.1% [at 2.29 µM] (inactive)

Give measured activity change, negative = inhibition for every item shown.
1. Cc1ccc(C)c(/C(=N\N=C(N)N)C2CC2)c1
2. CC(C)(C)CC(C)(C)c1ccc(O)c(C[N+](C)(C)[O-])c1
3. Cc1cc(C)c(O)c(Cc2cccc(Cc3cc(C)cc(C)c3O)c2O)c1
4. Cc1nnc(S(=O)(=O)c2ccc(N=Nc3c(N)nc(N)nc3N)cc2)s1
5. Cc1c(Cl)cccc1NC(=O)C[C@H]1Sc2ccccc2NC1=O
6. N=c1nc(N)nc(N)n1-c1ccc(S(N)(=O)=O)cc1

1: 1.1% [at 2.29 µM] (inactive); 2: -17.9% [at 2.29 µM] (inactive); 3: -14.7% [at 2.29 µM] (inactive); 4: -10.2% [at 2.29 µM] (inactive); 5: -23.2% [at 2.29 µM] (inactive); 6: -3.8% [at 2.29 µM] (inactive)

---

target: Cytochrome P450 2C19 (Homo sapiens) (UniProt P33261); test: qHTS Assay for Inhibitors and Substrates of Cytochrome P450 2C19 (AID 899); conditions: recombinant CYP2C19, luciferin-H EGE luminescence; series mostly up to 11.4 µM; note: nearly all actives have a fitted effect of over 60% in size
Sequence (P33261 whole entry, looked up): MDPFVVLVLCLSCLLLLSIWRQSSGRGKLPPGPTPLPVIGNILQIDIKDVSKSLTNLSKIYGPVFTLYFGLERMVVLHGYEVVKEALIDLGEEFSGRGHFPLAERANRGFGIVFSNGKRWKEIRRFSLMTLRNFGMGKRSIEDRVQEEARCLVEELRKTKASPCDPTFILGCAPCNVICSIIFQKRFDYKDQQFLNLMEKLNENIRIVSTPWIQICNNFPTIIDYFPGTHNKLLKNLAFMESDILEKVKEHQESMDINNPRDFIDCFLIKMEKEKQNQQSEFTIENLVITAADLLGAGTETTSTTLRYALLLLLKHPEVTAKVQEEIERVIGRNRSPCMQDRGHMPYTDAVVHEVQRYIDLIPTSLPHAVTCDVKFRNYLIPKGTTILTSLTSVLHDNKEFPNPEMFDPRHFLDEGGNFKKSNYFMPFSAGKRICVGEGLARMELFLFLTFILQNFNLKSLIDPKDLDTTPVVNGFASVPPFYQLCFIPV
Records with an inconclusive call do not appear. The source made the active and inactive calls. Calls come from the whole dose curve; as a rule, active = well fitted inhibition curve with a large enough effect; inconclusive = small, poorly fitted or top-dose-only effect; inactive = no such curve, though single readings can be large or run the other way.
Allowed answers: TRUE = active, FALSE = inactive

Below, 5 molecules whose answers are already recorded.
>  <molecule>
Cc1ccc2ccccc2c1CSc1nc(N)nc2c1ncn2CC(C)C

>  <assigned_class>
TRUE

$$$$
>  <molecule>
S=C1SCN(C2CCCCCCCCCCC2)CN1C1CCCCCCCCCCC1

>  <assigned_class>
TRUE

$$$$
>  <molecule>
O=C1O[C@@H]([C@H](O)[C@H](O)[C@H](O)CO)[C@@H](O)[C@@H]1O

>  <assigned_class>
FALSE

$$$$
>  <molecule>
N[C@H](CCCC(=O)O)C(=O)O

>  <assigned_class>
FALSE

$$$$
>  <molecule>
CSc1nc(N)c2ncn([C@@H]3O[C@@H](COP(=O)(O)OP(=O)(O)OP(=O)(O)O)[C@@H](O)[C@H]3O)c2n1

>  <assigned_class>
FALSE

$$$$

Per the assay record, what outcome was assigned to "OC[C@@H]1O[C@@H](O)[C@H](N=Cc2ccc3c(c2)OCO3)[C@@H](O)[C@@H]1O" ? FALSE

Would you mind telling me which call this test gave N=c1sc2ccccc2n1CCS (tested in a mixture with another compound) ? TRUE

Test call, this molecule: "Nc1nc(N)nc(CCCCc2nc(N)nc(N)n2)n1" FALSE

Recorded test outcome, item "O=C(O)CCSCc1ccccc1" FALSE

Could you please tell me the result logged for "O=C(N[C@@]1(C(=O)O)C[C@@H]1c1ccccc1)c1ccccc1" in this assay? FALSE

Hi team, can someone confirm the assay call for "CC(=O)CC(=O)Nc1ccc2ccccc2c1" ? FALSE

Tell me the assay call for "Oc1ccc2ccccc2c1Cc1c(O)ccc2ccccc12" please. TRUE

Recorded call for "Cn1cnc([N+](=O)[O-])c1SCC(=O)O" ? FALSE

For "c1ccc2cc(NCNc3ccc4ccccc4c3)ccc2c1" , what call appears in the results of this test? TRUE

For this molecule, state the assay outcome: "Clc1ccc(-c2noc(CN3CCCCC3)n2)cc1" TRUE

Look up the recorded call for "O=c1[nH]c(SCc2cccc([N+](=O)[O-])c2)nc2nc[nH]c12" in this test. FALSE

What was the test verdict on "O=C1c2cccc([N+](=O)[O-])c2C(=O)N1c1ncn[nH]1" ? FALSE
